- tested-target: sGC α1/β1 heterodimer stably expressed in CHO-K1 cells (CHO-K1/sGC) (Homo sapiens, UniProt Q02108+Q02153)
- Construct: expressed in transfected cells
- Sequence (Q02108 whole entry): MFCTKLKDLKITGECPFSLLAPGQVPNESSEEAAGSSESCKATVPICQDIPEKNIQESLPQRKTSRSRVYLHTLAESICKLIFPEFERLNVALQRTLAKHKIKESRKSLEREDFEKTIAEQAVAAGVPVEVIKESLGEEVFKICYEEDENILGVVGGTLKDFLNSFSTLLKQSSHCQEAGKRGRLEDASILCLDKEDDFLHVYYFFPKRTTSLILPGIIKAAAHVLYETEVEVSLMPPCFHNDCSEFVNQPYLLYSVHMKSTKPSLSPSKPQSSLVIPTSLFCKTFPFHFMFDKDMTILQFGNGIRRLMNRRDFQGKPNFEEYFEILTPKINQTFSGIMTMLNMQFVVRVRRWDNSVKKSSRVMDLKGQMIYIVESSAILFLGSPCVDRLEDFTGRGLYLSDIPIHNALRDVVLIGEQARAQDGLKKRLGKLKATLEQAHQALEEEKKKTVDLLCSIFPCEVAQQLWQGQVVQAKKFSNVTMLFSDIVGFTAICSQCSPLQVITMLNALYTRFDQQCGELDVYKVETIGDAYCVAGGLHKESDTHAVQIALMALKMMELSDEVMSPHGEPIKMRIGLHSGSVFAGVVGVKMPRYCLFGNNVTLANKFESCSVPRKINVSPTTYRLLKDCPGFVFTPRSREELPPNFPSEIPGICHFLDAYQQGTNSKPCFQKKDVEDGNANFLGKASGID
- Sequence (Q02153 whole entry): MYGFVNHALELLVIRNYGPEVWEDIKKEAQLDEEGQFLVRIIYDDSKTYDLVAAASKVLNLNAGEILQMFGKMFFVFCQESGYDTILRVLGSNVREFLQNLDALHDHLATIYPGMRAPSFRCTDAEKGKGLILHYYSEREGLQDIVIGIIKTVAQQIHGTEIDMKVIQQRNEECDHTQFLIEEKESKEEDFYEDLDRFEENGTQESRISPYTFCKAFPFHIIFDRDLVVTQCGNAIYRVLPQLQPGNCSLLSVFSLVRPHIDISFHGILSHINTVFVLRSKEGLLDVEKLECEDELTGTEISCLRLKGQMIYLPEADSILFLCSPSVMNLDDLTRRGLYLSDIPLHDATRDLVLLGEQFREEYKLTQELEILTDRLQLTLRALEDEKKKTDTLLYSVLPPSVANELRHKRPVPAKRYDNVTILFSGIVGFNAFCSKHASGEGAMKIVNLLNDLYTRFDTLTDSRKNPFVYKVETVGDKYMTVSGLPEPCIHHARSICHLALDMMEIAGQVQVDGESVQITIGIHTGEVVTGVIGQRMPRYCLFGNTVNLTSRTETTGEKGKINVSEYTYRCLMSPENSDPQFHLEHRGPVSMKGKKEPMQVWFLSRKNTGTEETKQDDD
- experimental-protocol: Cell-based sGC functional assay (CASA assay), cGMP generation by HTRF
- applied-conditions: CHO-K1/sGC cells, 1 hr at 37° C., 4P fit; presence or absence of DETA-NO not given; read-out: IP (nM) (inflection point)
recorded-endpoint: EC50 (nM)

• CC1(C)C(=O)Nc2nc(-c3cn4ccnc4c(Oc4cc(F)cc(F)c4)n3)nc(N)c21 = 238
• CC1(c2ccccc2)C(=O)Nc2nc(-c3cn4ccnc4c(Oc4cccc(F)c4F)n3)nc(N)c21 (stereo not shown) [Example 13B] = 14
• CC1(c2ccccc2)C(=O)Nc2nc(-c3cn4ccnc4c(Oc4ccc(F)c(F)c4F)n3)nc(N)c21 (stereo not shown) [Example 11B] = 138
• CC(C)COc1nc(-c2nc(N)c3c(n2)NC(=O)C3(C)c2ccc(F)cc2)cn2ccnc12 (stereo not shown) [Example 51A] = 27
• CC1(c2ccc(Cl)cc2)C(=O)Nc2nc(-c3cn4ccnc4c(OCC4CC(F)(F)C4)n3)nc(N)c21 (stereo not shown) [Example 32A] = 157

1. CC1(c2ccc(F)cc2)C(=O)Nc2nc(-c3cn4ccnc4c(Oc4cc(F)ccc4F)n3)nc(N)c21 (stereo not shown) [Example 25A]
2. CC1(c2ccc(Cl)cc2)C(=O)Nc2nc(-c3cn4ccnc4c(NCC(F)(F)C(F)(F)F)n3)nc(N)c21 (stereo not shown) [Example 61A]
3. CC1(c2ccc(F)cc2)C(=O)Nc2nc(-c3cn4ccnc4c(OCC4CCCCC4)n3)nc(N)c21 (stereo not shown) [Example 43A]
4. CC(Nc1nc(-c2nc(N)c3c(n2)NC(=O)C3(C)c2ccc(Cl)cc2)cn2ccnc12)c1ccccc1 (stereo not shown) [Example 73]
5. C[C@H](Oc1nc(-c2nc(N)c3c(n2)NC(=O)C3(C)c2ccc(Cl)cc2)cn2ccnc12)c1ccccc1 (single isomer, unassigned; fast eluting) [Example 69A]
Query: Order by EC50, ascending. // list labels; follow requested order
Result: 3, 1, 2, 4, 5
(3: 17 nM, 1: 32 nM, 2: 165 nM, 4: 336 nM, 5: 833 nM)

---

- tested-target: sGC α1/β1 heterodimer stably expressed in CHO-K1 cells (CHO-K1/sGC) (Homo sapiens, UniProt Q02108+Q02153)
- Construct: expressed in transfected cells
- experimental-protocol: Cell-based sGC functional assay (CASA assay), cGMP generation by HTRF
- applied-conditions: CHO-K1, maximum cGMP production of Compound A set to 100% activation; read-out: % Act. (percent activation relative to Compound A)
recorded-endpoint: Emax (%)

Some compounds with recorded Emax:
- CC1(c2ccc(Cl)cc2)C(=O)Nc2nc(-c3cn4ccnc4c(NCC(F)(F)C(F)(F)F)n3)nc(N)c21 (stereo not shown) [Example 61A]: 116
- CC1(c2ccc(F)cc2)C(=O)Nc2nc(-c3cn4ccnc4c(Oc4ccccc4F)n3)nc(N)c21 (stereo not shown): 100

I. CC1(c2ccc(Cl)cc2)C(=O)Nc2nc(-c3cn4ccnc4c(NCC4CCOCC4)n3)nc(N)c21 (stereo not shown) [Example 59A]
II. CC1(c2ccc(Cl)cc2)C(=O)Nc2nc(-c3cn4ccnc4c(NCC4CC4(C)C)n3)nc(N)c21 (stereo not shown) [Example 56A]
Query: When I and II are compared, which has the higher number for Emax? Identify your selection by its label.
Result: I
(I: 167%, II: 110%)
